- assay target: Polyunsaturated fatty acid lipoxygenase ALOX12 (Homo sapiens, UniProt P18054)
- Sequence (P18054 whole entry): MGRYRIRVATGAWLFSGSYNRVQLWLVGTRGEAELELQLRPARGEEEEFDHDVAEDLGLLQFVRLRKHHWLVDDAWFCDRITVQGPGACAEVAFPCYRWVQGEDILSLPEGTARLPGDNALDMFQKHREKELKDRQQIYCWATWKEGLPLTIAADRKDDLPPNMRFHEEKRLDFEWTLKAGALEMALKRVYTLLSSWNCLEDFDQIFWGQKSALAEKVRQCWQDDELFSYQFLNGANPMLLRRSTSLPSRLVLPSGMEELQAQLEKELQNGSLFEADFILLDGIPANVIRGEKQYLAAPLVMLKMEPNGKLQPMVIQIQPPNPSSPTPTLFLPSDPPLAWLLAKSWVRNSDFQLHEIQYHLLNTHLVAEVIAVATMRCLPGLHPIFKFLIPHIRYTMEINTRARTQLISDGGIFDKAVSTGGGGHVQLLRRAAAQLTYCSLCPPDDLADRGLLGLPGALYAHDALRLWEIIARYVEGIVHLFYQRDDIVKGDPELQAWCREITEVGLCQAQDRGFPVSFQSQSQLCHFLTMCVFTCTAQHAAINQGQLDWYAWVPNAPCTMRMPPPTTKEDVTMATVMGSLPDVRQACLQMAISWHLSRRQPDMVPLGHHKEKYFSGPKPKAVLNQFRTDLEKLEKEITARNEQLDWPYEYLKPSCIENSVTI
measurement kind: IC50

Exercise: Returns the measured IC50 for the input molecule. Input: Cc1ccc(O)c(-c2cc(-c3ccccc3C)[nH]n2)c1
Solution: > 50 µM

---

- assay target: Polyunsaturated fatty acid 5-lipoxygenase (Homo sapiens)
- Sequence (P09917 whole entry): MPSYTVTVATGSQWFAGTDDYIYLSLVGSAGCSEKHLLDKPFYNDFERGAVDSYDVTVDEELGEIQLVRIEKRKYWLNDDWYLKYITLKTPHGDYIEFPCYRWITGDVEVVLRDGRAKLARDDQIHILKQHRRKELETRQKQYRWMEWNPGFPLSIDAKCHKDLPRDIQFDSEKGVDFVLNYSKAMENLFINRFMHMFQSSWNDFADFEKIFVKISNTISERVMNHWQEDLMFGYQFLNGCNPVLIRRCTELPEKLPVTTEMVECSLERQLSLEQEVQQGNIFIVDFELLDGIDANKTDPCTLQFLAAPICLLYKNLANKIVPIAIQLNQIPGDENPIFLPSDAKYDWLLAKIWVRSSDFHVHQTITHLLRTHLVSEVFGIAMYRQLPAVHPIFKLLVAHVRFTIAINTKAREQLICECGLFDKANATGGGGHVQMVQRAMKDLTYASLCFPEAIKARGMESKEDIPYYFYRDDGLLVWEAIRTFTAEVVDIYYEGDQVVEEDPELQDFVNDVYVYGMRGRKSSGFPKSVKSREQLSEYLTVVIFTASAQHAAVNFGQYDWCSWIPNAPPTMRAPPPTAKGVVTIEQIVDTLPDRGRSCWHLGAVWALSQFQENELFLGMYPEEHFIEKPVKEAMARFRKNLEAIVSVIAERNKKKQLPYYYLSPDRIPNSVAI
measurement kind: IC50

Exercise: Returns the measured IC50 for the input compound. Input: Cc1ccc(O)c(-c2cc(-c3ccccc3C)[nH]n2)c1
Solution: > 100 µM

---

- assay target: Polyunsaturated fatty acid lipoxygenase ALOX15 (Homo sapiens, UniProt P16050)
- Sequence (P16050 whole entry): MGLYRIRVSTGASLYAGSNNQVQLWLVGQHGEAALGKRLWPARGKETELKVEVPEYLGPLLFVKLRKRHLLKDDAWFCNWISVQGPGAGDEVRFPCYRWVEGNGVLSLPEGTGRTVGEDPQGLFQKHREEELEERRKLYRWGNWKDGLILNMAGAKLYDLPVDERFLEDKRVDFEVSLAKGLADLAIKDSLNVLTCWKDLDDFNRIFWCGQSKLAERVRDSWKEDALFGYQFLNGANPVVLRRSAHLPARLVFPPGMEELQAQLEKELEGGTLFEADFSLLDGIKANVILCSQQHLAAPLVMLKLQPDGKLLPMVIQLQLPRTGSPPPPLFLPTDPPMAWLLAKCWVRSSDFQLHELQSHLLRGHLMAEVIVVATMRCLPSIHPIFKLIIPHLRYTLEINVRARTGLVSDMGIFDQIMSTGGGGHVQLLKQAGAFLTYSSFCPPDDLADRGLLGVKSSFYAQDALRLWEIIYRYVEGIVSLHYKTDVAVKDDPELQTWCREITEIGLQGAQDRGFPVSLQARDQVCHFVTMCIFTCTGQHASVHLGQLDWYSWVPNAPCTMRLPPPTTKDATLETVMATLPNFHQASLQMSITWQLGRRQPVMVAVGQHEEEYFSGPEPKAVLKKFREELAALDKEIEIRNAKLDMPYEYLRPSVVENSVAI
measurement kind: IC50 (µM)
Numbers only, in µM.

- query smiles: "Cc1ccc(-c2cc(-c3ccccc3C)[nH]n2)c(O)c1"
  assay target: "Polyunsaturated fatty acid lipoxygenase ALOX15 (Homo sapiens, UniProt P16050)"
  units text: "µM"
  result value: 10

Quick batch: IC50 for everything below.
1. COc1ccc(O)c(-c2cc(-c3ccccc3Cl)n[nH]2)c1
2. Cc1ccc(O)c(-c2cc(-c3cccc(Br)c3)[nH]n2)c1
3. COc1ccc(-c2cc(-c3ccccc3O)[nH]n2)cc1
4. COc1ccc(-c2cc(-c3cc(OC)ccc3O)[nH]n2)cc1
5. Oc1ccccc1-c1cc(-c2ccco2)[nH]n1
6. COc1ccc(O)c(-c2cc(-c3cccc(Br)c3)[nH]n2)c1
7. Cc1ccc(O)c(-c2cc(-c3cccc(F)c3)[nH]n2)c1

Solution:
1: 6.6; 2: 9.1; 3: 10; 4: 6; 5: 7; 6: 7; 7: 10

Quick batch: IC50 for everything below.
1. Cc1ccc(O)c(-c2cc(-c3ccccc3C)[nH]n2)c1
2. COc1ccc(O)c(-c2cc(-c3ccc(F)cc3)[nH]n2)c1

Solution:
1: 3.4; 2: 11

---

Provide the recorded Survival for the entries that follow.
- assay target: Polyunsaturated fatty acid lipoxygenase ALOX15 (Mus musculus) (UniProt P39654)
- Sequence (whole entry): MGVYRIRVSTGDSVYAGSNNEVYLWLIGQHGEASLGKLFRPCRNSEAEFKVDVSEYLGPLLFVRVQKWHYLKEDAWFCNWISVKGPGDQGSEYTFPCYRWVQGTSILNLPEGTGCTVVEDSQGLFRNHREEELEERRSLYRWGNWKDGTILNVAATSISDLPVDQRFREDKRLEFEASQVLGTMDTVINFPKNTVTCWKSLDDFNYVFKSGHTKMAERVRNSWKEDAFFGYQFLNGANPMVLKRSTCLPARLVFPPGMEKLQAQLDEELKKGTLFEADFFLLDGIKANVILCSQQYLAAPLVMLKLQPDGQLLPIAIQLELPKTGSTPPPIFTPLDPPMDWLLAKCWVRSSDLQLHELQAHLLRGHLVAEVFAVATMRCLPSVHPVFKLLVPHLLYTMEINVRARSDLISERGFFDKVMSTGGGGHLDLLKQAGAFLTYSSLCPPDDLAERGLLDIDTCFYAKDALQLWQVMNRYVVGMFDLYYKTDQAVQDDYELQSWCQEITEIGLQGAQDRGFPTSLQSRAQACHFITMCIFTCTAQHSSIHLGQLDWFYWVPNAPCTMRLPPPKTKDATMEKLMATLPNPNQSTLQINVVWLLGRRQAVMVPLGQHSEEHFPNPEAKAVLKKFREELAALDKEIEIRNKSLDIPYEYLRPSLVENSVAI
- assay explanation: Inhibition of glutamate-induced 12/15-LOX-dependent cell death in mouse HT22 cells assessed as increase in cell survival at 5 uM by LDH release assay
- Type: cell-based
- condition label: HT-22
Numbers only, in %.

Examples with answers:
- query smiles: "Cc1ccc(-c2cc(-c3ccccc3C)[nH]n2)c(O)c1"
  assay target: "Polyunsaturated fatty acid lipoxygenase ALOX15 (Mus musculus) (UniProt P39654)"
  result value: 71
- query smiles: "Cc1ccccc1-c1cc(-c2ccccc2O)[nH]n1"
  assay target: "Polyunsaturated fatty acid lipoxygenase ALOX15 (Mus musculus) (UniProt P39654)"
  result value: 76
- query smiles: "Cc1ccc(O)c(-c2cc(-c3ccccc3C)[nH]n2)c1"
  assay target: "Polyunsaturated fatty acid lipoxygenase ALOX15 (Mus musculus) (UniProt P39654)"
  result value: 20
- query smiles: "Cc1ccc(O)c(-c2cc(-c3cccc(Br)c3)[nH]n2)c1"
  assay target: "Polyunsaturated fatty acid lipoxygenase ALOX15 (Mus musculus) (UniProt P39654)"
  result value: 18
- query smiles: "COc1ccc(O)c(-c2cc(-c3ccc(F)cc3)[nH]n2)c1"
  assay target: "Polyunsaturated fatty acid lipoxygenase ALOX15 (Mus musculus) (UniProt P39654)"
  result value: 78

Read the next record carefully.
Exercise: API: value(readout= Survival, system= Polyunsaturated fatty acid lipoxygenase ALOX15 (Mus musculus) (UniProt P39654), query= COc1ccc(-c2cc(-c3cc(OC)ccc3O)[nH]n2)cc1 )
Solution: 96
